These entries and their values trace back to patent US20220017615A1.

Below: a set of entries, each annotated with reported OD450 nm.
Molecular target: T1, His-tagged CD47 recombinant protein, CD47-His (human, UniProt Q08722 19-141, limits assumed)
T1 construct: it is not restated for CD47-His; also called human CD47-His protein; antigen CD47-His; not shown: His tag
Experiment: ELISA on coated CD47-His; Ab 2.667 nM
property: OD450 nm

INSERT INTO assay_data (binder, value_observed) VALUES
  ('95E2D10 (antibody, V domains shown, Murine hybridoma antibody purified on protein G) VH: QIQLQQSGPELVKPGASMKISCKASGYPFTDYYIHWVKQKPGQGLEWIGWIYPGSGNNKYNEKFKGKATLTVDTSPSTVYMQLSSLTSEDTAVYFCARRAGNYFDYWGQGTTLTVSS VL: NIVMTQSPKSMSRSVGERVTLSCRASENVRTYVFWYQQKPGLSPKLLIYGASNRYIGVPDRFTGSGSATDFTLTISSVQAEDLADYHCGQSYSYPLTFGAGTKLELK', 3.01),
  ('51E2F11 (antibody, V domains shown, Murine hybridoma antibody purified on protein G) VH: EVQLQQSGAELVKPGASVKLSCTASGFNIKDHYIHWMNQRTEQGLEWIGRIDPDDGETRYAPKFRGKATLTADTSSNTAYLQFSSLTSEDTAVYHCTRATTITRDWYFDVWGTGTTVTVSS VL: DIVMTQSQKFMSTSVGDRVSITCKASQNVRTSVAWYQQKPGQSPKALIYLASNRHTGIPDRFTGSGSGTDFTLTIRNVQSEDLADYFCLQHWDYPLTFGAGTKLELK', 3),
  ('132D1E5 (antibody, V domains shown, Murine hybridoma antibody purified on protein G) VH: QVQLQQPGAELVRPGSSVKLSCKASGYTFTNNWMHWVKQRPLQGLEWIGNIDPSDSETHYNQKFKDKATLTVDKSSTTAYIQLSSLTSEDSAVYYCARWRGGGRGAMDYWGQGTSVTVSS VL: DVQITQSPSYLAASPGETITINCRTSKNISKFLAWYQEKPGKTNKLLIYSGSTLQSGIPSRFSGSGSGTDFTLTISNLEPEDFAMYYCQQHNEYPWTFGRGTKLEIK', 3.07),
  ('25E3B5 (antibody, V domains shown, Murine hybridoma antibody purified on protein G) VH: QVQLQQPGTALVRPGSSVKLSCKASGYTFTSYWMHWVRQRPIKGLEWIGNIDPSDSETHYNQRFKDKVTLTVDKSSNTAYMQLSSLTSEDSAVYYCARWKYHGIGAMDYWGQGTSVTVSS VL: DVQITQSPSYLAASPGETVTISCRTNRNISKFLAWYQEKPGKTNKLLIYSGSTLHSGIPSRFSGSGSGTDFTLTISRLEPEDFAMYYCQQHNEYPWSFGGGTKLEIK', 3.02),
  ('54G8G6 (antibody, V domains shown, Murine hybridoma antibody purified on protein G) VH: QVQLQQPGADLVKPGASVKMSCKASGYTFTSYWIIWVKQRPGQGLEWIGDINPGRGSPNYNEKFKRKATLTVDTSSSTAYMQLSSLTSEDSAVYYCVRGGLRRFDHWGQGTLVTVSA VL: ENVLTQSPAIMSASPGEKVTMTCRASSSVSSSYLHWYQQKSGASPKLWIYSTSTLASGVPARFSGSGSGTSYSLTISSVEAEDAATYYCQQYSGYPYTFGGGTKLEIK', 3);
